# Experiment Description: Encapsulation efficiency of lipid nanoparticles (Quant-it Ribogreen RNA quantification assay)
# Format: physicochemical
# Setup Conditions: LNP encapsulating hEPO mRNA; Table 3
Recorded Endpoint: Encapsulation Efficiency (%)
Number only, in %; omit the unit.

Q: // Encapsulation Efficiency lookup, key: CCCCCCCCC(CCCCCCCC)CNC(=O)CCCCCN(CCCCCC(=O)OCC(CCCCCCCC)CCCCCCCC)CCN(CCO)C1CCCCC1
Result: 94.50

Q: // next record CCCCCCCCC(CCCCCC)COC(=O)CCCCCN(CCCCCC(=O)OCC(CCCCCC)CCCCCCCC)CCN(CCO)C1COC1 (centres unmarked)
Result: 97.2

Q: // next record CCCCCCCCC(CCCCCC)CC(=O)COCCCCN(CCCCCOC(=O)CC(CCCCCC)CCCCCCCC)CCN(CCO)C1CC1 (centres unmarked)
Result: 95.4

Q: // next record CCCCCCCCCCC(CCCCCC)COC(=O)CCCN(CCCC(=O)OCC(CCCCCC)CCCCCCCCCC)CCN(CCO)C1CCC1 (centres unmarked)
Result: 97.5

Q: // next record CCCCCCCCCC(CCCCCCCCC)COC(=O)CCCCCN(CCCCCC(=O)OCC(CCCCCCCCC)CCCCCCCCC)CCN(CCO)C1CCC1
Result: 94.10
